Assay: Selectivity index, ratio of IC50 for cytotoxicity against human HepG2 cells to IC50 for erythrocytic stage of chloroquine-sensitive Plasmodium falciparum 3D7
Assay type: toxicity, cell-based
Conditions: read-out: Ratio IC50
MEASURED_PARAMETER: selectivity ratio

>  <COMPOUND>
COc1ccc2c3ccnc(C)c3n(CCNC(=O)OC/C=C/c3cccc(Cl)c3)c2c1

>  <MEASURED_PARAMETER>
selectivity ratio

>  <VALUE_MEASURED>
8.78

$$$$
>  <COMPOUND>
COc1ccc2c3ccnc(C)c3n(CCNC(=O)OC/C=C/c3ccccc3)c2c1

>  <MEASURED_PARAMETER>
selectivity ratio

>  <VALUE_MEASURED>
18.5

$$$$
>  <COMPOUND>
COc1ccc2c3ccnc(C)c3n(CCNC(=O)/C=C/c3cccc(OC(F)(F)F)c3)c2c1

>  <MEASURED_PARAMETER>
selectivity ratio

>  <VALUE_MEASURED>
16.2

$$$$
>  <COMPOUND>
COc1ccc2c3ccnc(C)c3n(CCNC(=O)/C=C/c3ccccc3Cl)c2c1

>  <MEASURED_PARAMETER>
selectivity ratio

>  <VALUE_MEASURED>
21.8

$$$$
>  <COMPOUND>
COc1ccc2c3ccnc(C)c3n(CCNC(=O)/C=C/c3ccc(C)cc3)c2c1

>  <MEASURED_PARAMETER>
selectivity ratio

>  <VALUE_MEASURED>
6

$$$$
>  <COMPOUND>
COc1ccc2c3ccnc(C)c3n(CCNC(=O)OC/C=C/c3cc(C(F)(F)F)cc(C(F)(F)F)c3)c2c1

>  <MEASURED_PARAMETER>
selectivity ratio

>  <VALUE_MEASURED>
21.8

$$$$
>  <COMPOUND>
COc1ccc2c3ccnc(C)c3n(CCNC(=O)OC/C=C/c3cccc(OC(F)(F)F)c3)c2c1

>  <MEASURED_PARAMETER>
selectivity ratio

>  <VALUE_MEASURED>
12.8

$$$$
>  <COMPOUND>
COc1ccc2c(c1)[nH]c1c(C)nccc12 [HARMINE]

>  <MEASURED_PARAMETER>
selectivity ratio

>  <VALUE_MEASURED>
30

$$$$
>  <COMPOUND>
CCCOc1ccc(/C=C/COC(=O)NCCn2c3cc(OC)ccc3c3ccnc(C)c32)cc1

>  <MEASURED_PARAMETER>
selectivity ratio

>  <VALUE_MEASURED>
19.9

$$$$
>  <COMPOUND>
COc1ccc2c3ccnc(C)c3n(CCNC(=O)/C=C/c3cccc(Cl)c3)c2c1

>  <MEASURED_PARAMETER>
selectivity ratio

>  <VALUE_MEASURED>
25.6

$$$$
>  <COMPOUND>
CCCOc1ccc(/C=C/CNC(=O)NCCn2c3cc(OC)ccc3c3ccnc(C)c32)cc1

>  <MEASURED_PARAMETER>
selectivity ratio

>  <VALUE_MEASURED>
10.3

$$$$
>  <COMPOUND>
COc1ccc2c3ccnc(C)c3n(CCNC(=O)OC/C=C/c3ccc(Br)cc3)c2c1

>  <MEASURED_PARAMETER>
selectivity ratio

>  <VALUE_MEASURED>
21.6

$$$$
>  <COMPOUND>
COc1ccc2c3ccnc(C)c3n(CCNC(=O)/C=C/c3ccc([N+](=O)[O-])cc3)c2c1

>  <MEASURED_PARAMETER>
selectivity ratio

>  <VALUE_MEASURED>
31.8

$$$$
>  <COMPOUND>
COc1ccc2c3ccnc(C)c3n(CCNC(=O)/C=C/c3ccc(Br)cc3)c2c1

>  <MEASURED_PARAMETER>
selectivity ratio

>  <VALUE_MEASURED>
8.76

$$$$
>  <COMPOUND>
COc1ccc2c3ccnc(C)c3n(CCNC(=O)OC/C=C/c3ccc(C)cc3)c2c1

>  <MEASURED_PARAMETER>
selectivity ratio

>  <VALUE_MEASURED>
8.78

$$$$
>  <COMPOUND>
COc1ccc2c3ccnc(C)c3n(CCNC(=O)OC/C=C/c3ccc(C(F)(F)F)cc3)c2c1

>  <MEASURED_PARAMETER>
selectivity ratio

>  <VALUE_MEASURED>
8.49

$$$$
>  <COMPOUND>
COc1ccc2c3ccnc(C)c3n(CCNC(=O)NC/C=C/c3cccc(C(F)(F)F)c3)c2c1

>  <MEASURED_PARAMETER>
selectivity ratio

>  <VALUE_MEASURED>
44.7

$$$$
